study-system: CHO [hCOX-2] (Homo sapiens)
Construct: expressed in transfected cells; host or cells: CHO cells, stably transfected with pCDNAIII
Sequence (P35354 18-604): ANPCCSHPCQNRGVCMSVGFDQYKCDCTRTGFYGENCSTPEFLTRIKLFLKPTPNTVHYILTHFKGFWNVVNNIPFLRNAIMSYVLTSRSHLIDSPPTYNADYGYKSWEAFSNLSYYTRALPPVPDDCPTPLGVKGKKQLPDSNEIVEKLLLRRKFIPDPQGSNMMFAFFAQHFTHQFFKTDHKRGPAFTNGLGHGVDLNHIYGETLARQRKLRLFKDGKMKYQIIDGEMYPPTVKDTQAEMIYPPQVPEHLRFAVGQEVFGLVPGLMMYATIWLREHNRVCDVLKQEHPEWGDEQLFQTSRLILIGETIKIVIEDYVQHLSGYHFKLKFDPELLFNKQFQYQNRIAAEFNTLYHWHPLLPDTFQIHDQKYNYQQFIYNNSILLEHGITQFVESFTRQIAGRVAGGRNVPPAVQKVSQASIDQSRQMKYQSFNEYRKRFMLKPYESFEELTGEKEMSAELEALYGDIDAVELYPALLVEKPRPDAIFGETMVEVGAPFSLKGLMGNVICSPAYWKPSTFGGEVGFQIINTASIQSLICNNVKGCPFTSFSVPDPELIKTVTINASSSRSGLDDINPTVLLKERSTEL
assay-procedure: Whole cell assay for COX-2 using CHO transfected cell line (PGE2 synthesis)
Format: cell-based
condition-notes: Table IV; CHO[hCOX-2] cells, 10 µM AA; read-out: COX-2(IC50, µM) CHO
observation-type: IC50

Answered cases to consult:
C[C@]1(CC(F)(F)F)OC(=O)C(Oc2ccc(Cl)cn2)=C1c1ccc(S(C)(=O)=O)cc1 [Example 130] = 0.03 µM
CC[C@@]1(C)OC(=O)C(Oc2ccc(OC)cc2)=C1c1ccc(S(C)(=O)=O)cc1 [Example 129] = 0.15 µM
CC1(C)OC(=O)C(OC2CCc3ccccc32)=C1c1ccc(S(C)(=O)=O)cc1 (centres unmarked) [Example 175] = 0.05 µM

Find the measured IC50 of CC1(C)OC(=O)C(Oc2ncccc2F)=C1c1ccc(S(C)(=O)=O)cc1 [Example 167] with CHO [hCOX-2] (Homo sapiens) as test system. 0.11 µM

Find the measured IC50 of C[C@]1(CC(F)(F)F)OC(=O)C(Oc2ccc(F)cc2)=C1c1ccc(S(C)(=O)=O)cc1 [Example 166] with CHO [hCOX-2] (Homo sapiens) as test system. 0.05 µM

Find the measured IC50 of CC1(C)OC(=O)C(Oc2ccc3ncsc3c2)=C1c1ccc(S(C)(=O)=O)cc1 [Example 159] with CHO [hCOX-2] (Homo sapiens) as test system. 0.07 µM

Find the measured IC50 of Cc1cc(OC2=C(c3ccc(S(C)(=O)=O)cc3)C(C)(C)OC2=O)ccc1Cl [Example 200] with CHO [hCOX-2] (Homo sapiens) as test system. 0.16 µM

Find the measured IC50 of CC1(C(F)(F)F)OC(=O)C(Oc2ccc(F)c(F)c2)=C1c1ccc(S(C)(=O)=O)cc1 (centres unmarked) [Example 170] with CHO [hCOX-2] (Homo sapiens) as test system. 0.33 µM

Find the measured IC50 of CC1(C)OC(=O)C(Sc2nccs2)=C1c1ccc(S(C)(=O)=O)cc1 [Example 57] with CHO [hCOX-2] (Homo sapiens) as test system. 2 µM

Find the measured IC50 of CC[C@@]1(C)OC(=O)C(Oc2ccccc2)=C1c1ccc(S(C)(=O)=O)cc1 [Example 198] with CHO [hCOX-2] (Homo sapiens) as test system. 0.06 µM

Find the measured IC50 of CC1(C)OC(=O)C(Sc2ccc(Cl)cn2)=C1c1ccc(S(C)(=O)=O)cc1 [Example 45] with CHO [hCOX-2] (Homo sapiens) as test system. > 5 µM

Find the measured IC50 of Cc1nc(OC2=C(c3ccc(S(C)(=O)=O)cc3)C(C)(C)OC2=O)ccc1Cl [Example 203] with CHO [hCOX-2] (Homo sapiens) as test system. 0.17 µM

Find the measured IC50 of CC1(C)OC(=O)C(Oc2cccc(N)n2)=C1c1ccc(S(C)(=O)=O)cc1 [Example 53] with CHO [hCOX-2] (Homo sapiens) as test system. > 5 µM

Find the measured IC50 of CC(C)(C)COC1=C(c2ccc(S(C)(=O)=O)cc2)C(C)(C)OC1=O [Example 141] with CHO [hCOX-2] (Homo sapiens) as test system. 0.03 µM

Find the measured IC50 of CCCC1(C)OC(=O)C(Oc2ccc(F)cc2)=C1c1ccc(S(C)(=O)=O)cc1 (centres unmarked) [Example 124] with CHO [hCOX-2] (Homo sapiens) as test system. 0.03 µM

Find the measured IC50 of CC[C@@]1(C)OC(=O)C(Oc2ccc(Cl)cc2)=C1c1ccc(S(C)(=O)=O)cc1 [Example 118] with CHO [hCOX-2] (Homo sapiens) as test system. 0.008 µM

Find the measured IC50 of CC[C@@]1(C)OC(=O)C(OC(C)C)=C1c1ccc(S(C)(=O)=O)cc1 [Example 140] with CHO [hCOX-2] (Homo sapiens) as test system. 0.12 µM
